- Test system: HT-29
- ASSAY_NOTES: Cytotoxicity against human HT-29 cells assessed as growth inhibition at 10 uM after 48 hrs by sulphorhodamine B assay
- Assay type: functional
- EXPERIMENTAL_PARAMETERS: HT-29, 48 h, read-out: GI
Assign inhibition of growth at 10 µM to each entry below.

Worked examples follow.
CCSc1nc(N)c2c(-c3ccc(Cl)cc3)c3c(nc2n1)C(C)CCC3 (stereo not given) :: 27.7%
CC1CCCc2c1nc1nc(SCC(=O)c3ccccc3)nc(N)c1c2-c1ccc(Cl)cc1 (stereo not given) :: 21.5%
CC1CCCc2c1nc1[nH]c(=S)nc(N)c1c2-c1ccc(Cl)cc1 (stereo not given) :: < 10%
CC1CCCc2c1nc1[nH]c(=O)nc(N)c1c2-c1ccc(Cl)cc1 (stereo not given) :: < 10%
COc1ccc(-c2c3c(nc4ncnc(N)c24)C(C)CCC3)cc1 (stereo not given) :: < 10%
COc1ccc(-c2c3c(nc4ncn5ncnc5c24)C(C)CCC3)cc1 (stereo not given) :: < 10%
COc1ccc(-c2c3c(nc4nc[nH]c(=O)c24)C(C)CCC3)cc1 (stereo not given) :: < 10%
CC1CCCc2c1nc(N)c(C#N)c2-c1ccc(Cl)cc1 (stereo not given) :: < 10%
COc1ccc(-c2c3c(nc4ncn(N)c(=N)c24)C(C)CCC3)cc1 (stereo not given) :: < 10%
COc1ccc(-c2c3c(nc4nc(C)[nH]c(=O)c24)C(C)CCC3)cc1 (stereo not given) :: < 10%

Give inhibition of growth at 10 µM for each listed item.
1. CC1CCCc2c1nc1ncnc(N)c1c2-c1ccc(Cl)cc1 (stereo not given)
2. CCSc1nc(N)c2c(-c3ccc(OC)cc3)c3c(nc2n1)C(C)CCC3 (stereo not given)
3. CC1CCCc2c1nc(NC(=S)NC(=O)c1ccccc1)c(C#N)c2-c1ccc(Cl)cc1 (stereo not given)

Result:
1. 13.3%
2. 23.3%
3. < 10%

Give inhibition of growth at 10 µM for each listed item.
1. COc1ccc(-c2c(C#N)c(N)nc3c2CCCC3C)cc1 (stereo not given)
2. CC1CCCc2c1nc1[nH]c(=S)n(-c3ccccc3)c(=N)c1c2-c1ccc(Cl)cc1 (stereo not given)

Result:
< 10%
< 10%

---

- System: MDA-MB-435
- ASSAY_NOTES: Cytotoxicity against human MDA-MB-435 cells assessed as growth inhibition at 10 uM after 48 hrs by sulphorhodamine B assay
- Assay type: functional
- EXPERIMENTAL_PARAMETERS: MDA-MB-435, 48 h, read-out: GI
READOUT_LABEL: inhibition of growth at 10 µM

COc1ccc(-c2c3c(nc4ncn5ncnc5c24)C(C)CCC3)cc1 (stereo not given) :: < 10%
COc1ccc(-c2c(C#N)c(N)nc3c2CCCC3C)cc1 (stereo not given) :: < 10%
CC1CCCc2c1nc(N)c(C#N)c2-c1ccc(Cl)cc1 (stereo not given) :: < 10%
CCSc1nc(N)c2c(-c3ccc(OC)cc3)c3c(nc2n1)C(C)CCC3 (stereo not given) :: < 10%

Would you kindly look at the next entry?
Query: I would be grateful if you could share the reported inhibition of growth at 10 µM for COc1ccc(-c2c3c(nc4nc(C)[nH]c(=O)c24)C(C)CCC3)cc1 (stereo not given) .
Result: 19%

---

- Test system: SNB-19
- ASSAY_NOTES: Cytotoxicity against human SNB19 cells assessed as growth inhibition at 10 uM after 48 hrs by sulphorhodamine B assay
- Assay type: functional
- EXPERIMENTAL_PARAMETERS: SNB-19, 48 h, read-out: GI
Assign inhibition of growth at 10 µM to each entry below.
One number for each entry, in %.

CCSc1nc(N)c2c(-c3ccc(OC)cc3)c3c(nc2n1)C(C)CCC3 (stereo not given) :: 12.5

Give inhibition of growth at 10 µM for each listed item.
1. COc1ccc(-c2c(C#N)c(N)nc3c2CCCC3C)cc1 (stereo not given)
2. CC1CCCc2c1nc(N)c(C#N)c2-c1ccc(Cl)cc1 (stereo not given)
3. COc1ccc(-c2c3c(nc4ncnc(N)c24)C(C)CCC3)cc1 (stereo not given)

Result:
11
20.5
10

---

- System: PC-3
- ASSAY_NOTES: Cytotoxicity against human PC3 cells assessed as growth inhibition at 10 uM after 48 hrs by sulphorhodamine B assay
- Format: functional
- EXPERIMENTAL_PARAMETERS: PC-3, 48 h, read-out: GI
READOUT_LABEL: inhibition of growth at 10 µM (%)
Answers are plain numbers, in %.

Worked examples follow.
CC1CCCc2c1nc1ncnc(N)c1c2-c1ccc(Cl)cc1 (stereo not given) :: 24.2
CCSc1nc(N)c2c(-c3ccc(Cl)cc3)c3c(nc2n1)C(C)CCC3 (stereo not given) :: 25.3
CC1CCCc2c1nc1nc(SCC(=O)c3ccccc3)nc(N)c1c2-c1ccc(Cl)cc1 (stereo not given) :: 66.8
COc1ccc(-c2c3c(nc4nc(C)[nH]c(=O)c24)C(C)CCC3)cc1 (stereo not given) :: 14.2
CC1CCCc2c1nc(NC(=S)NC(=O)c1ccccc1)c(C#N)c2-c1ccc(Cl)cc1 (stereo not given) :: 20.3

Give inhibition of growth at 10 µM for each listed item.
1. CC1CCCc2c1nc1[nH]c(=S)n(-c3ccccc3)c(=N)c1c2-c1ccc(Cl)cc1 (stereo not given)
2. COc1ccc(-c2c3c(nc4ncn5ncnc5c24)C(C)CCC3)cc1 (stereo not given)
3. COc1ccc(-c2c3c(nc4ncnc(N)c24)C(C)CCC3)cc1 (stereo not given)
4. COc1ccc(-c2c(C#N)c(N)nc3c2CCCC3C)cc1 (stereo not given)

Result:
[21, 13, 15, 16.2]

---

- System: LOX IMVI
- ASSAY_NOTES: Cytotoxicity against human LOXIMVI cells assessed as growth inhibition at 10 uM after 48 hrs by sulphorhodamine B assay
- Assay type: functional
- EXPERIMENTAL_PARAMETERS: read-out: GI
Assign inhibition of growth at 10 µM to each entry below.
One number for each entry, in %.

CC1CCCc2c1nc(NC(=S)NC(=O)c1ccccc1)c(C#N)c2-c1ccc(Cl)cc1 (stereo not given) :: 11.1

Would you kindly look at the next entry?
Query: I would be grateful if you could share the reported inhibition of growth at 10 µM for CC1CCCc2c1nc1[nH]c(=S)n(-c3ccccc3)c(=N)c1c2-c1ccc(Cl)cc1 (stereo not given) .
Result: 13.1

---

- System: Hs-578T
- ASSAY_NOTES: Cytotoxicity against human Hs578T cells assessed as growth inhibition at 10 uM after 48 hrs by sulphorhodamine B assay
- Type: functional
- EXPERIMENTAL_PARAMETERS: read-out: GI
READOUT_LABEL: inhibition of growth at 10 µM (%)
Numbers only, in %.

Give inhibition of growth at 10 µM for each listed item.
1. CC1CCCc2c1nc1ncnc(N)c1c2-c1ccc(Cl)cc1 (stereo not given)
2. CCSc1nc(N)c2c(-c3ccc(Cl)cc3)c3c(nc2n1)C(C)CCC3 (stereo not given)
3. CCSc1nc(N)c2c(-c3ccc(OC)cc3)c3c(nc2n1)C(C)CCC3 (stereo not given)
4. CC1CCCc2c1nc(NC(=S)NC(=O)c1ccccc1)c(C#N)c2-c1ccc(Cl)cc1 (stereo not given)
5. CC1CCCc2c1nc1[nH]c(=O)nc(N)c1c2-c1ccc(Cl)cc1 (stereo not given)
6. CC1CCCc2c1nc(N)c(C#N)c2-c1ccc(Cl)cc1 (stereo not given)

Result:
[14.7, 14.2, 36.2, 13.8, 19.4, 25]

Query: I would be grateful if you could share the reported inhibition of growth at 10 µM for CC1CCCc2c1nc1nc(SCC(=O)c3ccccc3)nc(N)c1c2-c1ccc(Cl)cc1 (stereo not given) .
Result: 38.2

---

- System: PC-3
- ASSAY_NOTES: Cytotoxicity against human PC3 cells assessed as growth inhibition at 10 uM after 48 hrs by sulphorhodamine B assay
- Format: functional
- EXPERIMENTAL_PARAMETERS: PC-3, 48 h, read-out: GI
READOUT_LABEL: inhibition of growth at 10 µM (%)
Answers are plain numbers, in %.

Worked examples follow.
CC1CCCc2c1nc1[nH]c(=O)nc(N)c1c2-c1ccc(Cl)cc1 (stereo not given) :: 12.7
CCSc1nc(N)c2c(-c3ccc(OC)cc3)c3c(nc2n1)C(C)CCC3 (stereo not given) :: 31.4

Would you kindly look at the next entry?
Query: I would be grateful if you could share the reported inhibition of growth at 10 µM for CC1CCCc2c1nc1[nH]c(=S)nc(N)c1c2-c1ccc(Cl)cc1 (stereo not given) .
Result: 56.7

---

- Test system: K562
- ASSAY_NOTES: Cytotoxicity against human K562 cells assessed as growth inhibition at 10 uM after 48 hrs by sulphorhodamine B assay
- Assay type: functional
- EXPERIMENTAL_PARAMETERS: K562, 48 h, read-out: GI
Assign inhibition of growth at 10 µM to each entry below.
Numbers only, in %.

Worked examples follow.
CC1CCCc2c1nc(N)c(C#N)c2-c1ccc(Cl)cc1 (centres undefined) :: 11.8
CC1CCCc2c1nc1[nH]c(=S)n(-c3ccccc3)c(=N)c1c2-c1ccc(Cl)cc1 (centres undefined) :: 28.5
CC1CCCc2c1nc(NC(=S)NC(=O)c1ccccc1)c(C#N)c2-c1ccc(Cl)cc1 (centres undefined) :: 36.3
CC1CCCc2c1nc1[nH]c(=S)nc(N)c1c2-c1ccc(Cl)cc1 (centres undefined) :: 15
CCSc1nc(N)c2c(-c3ccc(OC)cc3)c3c(nc2n1)C(C)CCC3 (centres undefined) :: 32.5

Query: I would be grateful if you could share the reported inhibition of growth at 10 µM for CCSc1nc(N)c2c(-c3ccc(Cl)cc3)c3c(nc2n1)C(C)CCC3 (centres undefined) .
Result: 32.4

Hello, the source for this data is ChEMBL document CHEMBL2375313, in case you need it.
